Entries annotated with measured inhibition at 10000 µM
# System: Plasmodium berghei
# test summary: Antimalarial activity against chloroquine-susceptible Plasmodium berghei ANKA assessed as inhibition of trophozoite extract-mediated mouse hemoglobin hydrolysis at 10 mM after 18 hrs by SDS-PAGE
# Assay type: functional
Report as a plain number; the unit % is understood.

Completed entries (count: 2):
# molecular string, system name, inhibition at 10000 µM / %
data = [
    ("O=CNNC(=O)c1ccc2[nH]c(-c3ccc([N+](=O)[O-])s3)nc2c1", "Plasmodium berghei", 36.2),
    ("COc1cccc(C(=O)NNC(=O)c2ccc3[nH]c(-c4ccc([N+](=O)[O-])s4)nc3c2)c1", "Plasmodium berghei", 13.4),
]

The reported value for `O=C(NNC(=O)c1ccc2[nH]c(-c3ccc([N+](=O)[O-])s3)nc2c1)c1ccccc1` in terms of inhibition at 10000 µM is 39.2

Record summary for `O=C(O)c1ccc2[nH]c(-c3ccc([N+](=O)[O-])s3)nc2c1` : reported inhibition at 10000 µM = 0
